- TARGET SYSTEM: α4β1 integrin (Homo sapiens, UniProt P05556+P13612)
- Construct: a cell line Jurkat, which is known to express α4β1 integrin; endogenous in cells
- Sequence (P13612 34-1032): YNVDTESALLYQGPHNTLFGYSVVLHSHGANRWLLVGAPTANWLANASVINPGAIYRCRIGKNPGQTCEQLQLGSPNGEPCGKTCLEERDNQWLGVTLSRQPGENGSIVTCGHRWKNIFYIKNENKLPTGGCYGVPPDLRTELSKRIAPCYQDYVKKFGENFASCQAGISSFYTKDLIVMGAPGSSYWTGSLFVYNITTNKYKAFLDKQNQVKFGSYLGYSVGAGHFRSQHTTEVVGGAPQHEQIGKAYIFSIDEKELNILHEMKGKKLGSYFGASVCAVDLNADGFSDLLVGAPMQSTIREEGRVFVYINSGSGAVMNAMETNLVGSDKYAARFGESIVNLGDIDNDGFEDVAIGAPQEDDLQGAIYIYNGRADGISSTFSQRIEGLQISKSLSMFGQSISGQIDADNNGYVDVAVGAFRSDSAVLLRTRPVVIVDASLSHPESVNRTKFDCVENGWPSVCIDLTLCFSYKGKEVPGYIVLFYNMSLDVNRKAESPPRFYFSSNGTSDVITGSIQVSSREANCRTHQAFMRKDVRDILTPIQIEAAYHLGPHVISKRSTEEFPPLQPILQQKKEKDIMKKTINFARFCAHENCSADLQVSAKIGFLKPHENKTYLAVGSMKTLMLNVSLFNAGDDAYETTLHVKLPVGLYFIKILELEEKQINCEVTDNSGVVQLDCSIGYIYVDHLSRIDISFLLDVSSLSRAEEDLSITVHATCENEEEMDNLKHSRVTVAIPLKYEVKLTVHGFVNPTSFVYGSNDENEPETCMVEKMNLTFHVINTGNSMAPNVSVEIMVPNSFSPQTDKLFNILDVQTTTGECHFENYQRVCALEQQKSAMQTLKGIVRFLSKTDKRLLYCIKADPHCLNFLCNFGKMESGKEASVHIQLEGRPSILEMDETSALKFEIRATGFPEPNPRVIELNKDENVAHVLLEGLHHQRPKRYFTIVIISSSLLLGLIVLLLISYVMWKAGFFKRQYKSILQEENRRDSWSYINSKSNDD
- Sequence (P05556 21-798): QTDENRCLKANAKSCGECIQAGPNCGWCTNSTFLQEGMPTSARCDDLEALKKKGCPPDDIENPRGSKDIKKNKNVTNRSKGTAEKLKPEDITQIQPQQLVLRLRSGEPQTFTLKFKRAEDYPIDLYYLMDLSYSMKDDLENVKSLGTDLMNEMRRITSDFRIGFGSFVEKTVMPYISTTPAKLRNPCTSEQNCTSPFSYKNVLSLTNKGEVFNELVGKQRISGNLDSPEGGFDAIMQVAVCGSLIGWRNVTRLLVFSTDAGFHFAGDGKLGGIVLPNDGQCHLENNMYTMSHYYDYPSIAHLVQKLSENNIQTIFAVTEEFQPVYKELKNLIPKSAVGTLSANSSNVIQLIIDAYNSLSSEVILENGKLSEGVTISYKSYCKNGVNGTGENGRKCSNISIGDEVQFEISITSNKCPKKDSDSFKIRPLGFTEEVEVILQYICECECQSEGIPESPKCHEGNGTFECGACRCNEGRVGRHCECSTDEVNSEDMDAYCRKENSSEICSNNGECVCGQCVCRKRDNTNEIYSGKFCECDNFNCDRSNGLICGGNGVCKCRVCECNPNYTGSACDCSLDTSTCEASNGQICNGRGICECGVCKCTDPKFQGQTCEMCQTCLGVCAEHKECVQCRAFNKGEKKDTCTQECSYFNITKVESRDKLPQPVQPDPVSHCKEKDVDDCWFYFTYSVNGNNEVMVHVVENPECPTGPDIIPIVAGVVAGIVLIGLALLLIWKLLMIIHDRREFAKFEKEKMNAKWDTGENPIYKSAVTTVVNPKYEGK
- PROCEDURE TEXT: VCAM-1/α4β1 integrin binding inhibitory activity evaluation test (Jurkat cells binding to VCAM-1/Fc)
- ASSAY CONTEXT: recombinant human VCAM-1/Fc
- Experimental: (1) VCAM-1/α4β1 Integrin Binding Inhibitory Activity Evaluation Test Each test substance was measured in terms of an ability to inhibit the VCAM-1 binding of a human T cell line, namely, a cell line Jurkat, which is known to express α4β1 integrin. A solution of recombinant human VCAM-1/Fc (R&D Systems, Inc.) (1 μg/mL) diluted with a buffer A (carbonate buffer, pH 9.6) was placed in an amount of 50 μL/well in a 96-well microtiter plate, followed by incubation at 4° C. overnight. […]
REPORTED ENDPOINT: IC50 (µM)

Record excerpt, results attached:
# LINE NOTATION, READOUT NUMBER
measured = [
    ("Cc1c(C)n(C)c(=O)n(-c2ccc(C[C@H](NC(=O)c3cc(F)c(NS(=O)(=O)c4ccc(NC(=O)C5(O)CC5)cc4)cc3F)C(=O)O)cc2)c1=O", 0.83),
    ("Cc1c(C)n(C)c(=O)n(-c2ccc(C[C@H](NC(=O)c3cc(F)c(NS(=O)(=O)c4ccc(NC(=O)C(C)(C)CO)cc4)cc3F)C(=O)O)cc2)c1=O", 0.68),
    ("Cc1c(C)n(C)c(=O)n(-c2ccc(C[C@H](NC(=O)c3cc(F)c(NS(=O)(=O)c4ccc(N(C)C(=O)C(C)(C)C)cc4)cc3F)C(=O)O)cc2)c1=O", 3.8),
    ("Cc1cc(=O)n(-c2ccc(C[C@H](NC(=O)c3cc(F)c(NS(=O)(=O)c4ccc(NC(=O)C(C)(C)C)cc4)cc3F)C(=O)O)cn2)c(=O)n1C", 10),
    ("Cn1c(=O)n(-c2ccc(C[C@H](NC(=O)c3cc(F)c(NS(=O)(=O)c4ccc(NC(=O)C5CCOCC5)cc4)cc3F)C(=O)O)cc2)c(=O)c2ccncc21", 0.55),
]

a. Cc1cn(C)c(=O)n(-c2ccc(C[C@H](NC(=O)c3cc(F)c(NS(=O)(=O)c4c[nH]c5cc(NC(=O)C(C)(C)C)ccc45)cc3F)C(=O)O)cn2)c1=O
b. Cc1cn(C)c(=O)n(-c2ccc(C[C@H](NC(=O)c3cc(F)c(NS(=O)(=O)c4ccc(NC(=O)C5(C#N)CC5)cc4)cc3F)C(=O)O)cn2)c1=O
query: Sorting ascending by IC50, which comes first: a or b ? Let me know the label of the one you choose.
result: a

I. Cn1c2c(c(=O)n(-c3ccc(C[C@H](NC(=O)c4cc(F)c(NS(=O)(=O)c5ccc(NC(=O)C(C)(C)C)cc5)cc4F)C(=O)O)nc3)c1=O)CCCC2
II. Cc1cc(=O)n(-c2ccc(C[C@H](NC(=O)c3cc(F)c(NS(=O)(=O)c4ccc(NC(=O)C(C)(C)C)cc4)cc3F)C(=O)O)nc2)c(=O)n1C
III. Cc1cn(C)c(=O)n(-c2ccc(C[C@H](NC(=O)c3cc(F)c(NS(=O)(=O)c4ccc(NC(=O)C#CC(C)(C)C)cc4)cc3F)C(=O)O)cn2)c1=O
query: // smallest IC50 at index 0, largest at the end Returns: the labels arranged in the requested order.
result: III, I, II
(III: 2.3 µM, I: 4.1 µM, II: 9.3 µM)
